Data credit: patent US8658646B2

- Target Of Assay: JAK3: Recombinant human kinase domain (Homo sapiens, UniProt P52333)
- Construct: JAK3: Recombinant human kinase domain from Millipore (Cat #14-629) or prepared
- Sequence (P52333 822-1111 limits assumed): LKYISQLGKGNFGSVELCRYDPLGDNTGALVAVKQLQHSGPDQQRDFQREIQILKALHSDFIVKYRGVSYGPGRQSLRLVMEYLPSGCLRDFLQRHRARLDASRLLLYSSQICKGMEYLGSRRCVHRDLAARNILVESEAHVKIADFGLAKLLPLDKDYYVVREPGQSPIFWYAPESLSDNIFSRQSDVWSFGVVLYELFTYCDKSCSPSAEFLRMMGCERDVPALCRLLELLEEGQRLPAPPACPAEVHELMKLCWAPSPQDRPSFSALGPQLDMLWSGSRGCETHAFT
- Experiment Notes: Determination of IC50 of Janus Kinase (JAK) inhibition, radioactive end-point 33P-ATP assay, JAK3
- Condition Parameters: ATP 1.5 uM, peptide 50 uM, 20 minutes, read-out: JAK3-INHIB-DR/v1~NO ADDITIVE~Enzyme_Conc = 100
Property Label: IC50

>>> test_result("C[C@@H](NC(=O)c1c[nH]c2ncc(-c3nn(C)c4cc(F)ccc34)nc12)c1cccc(Br)c1")
"27.3 nM"
>>> test_result("C[C@@H](NC(=O)c1c[nH]c2ncc(-c3nn(C)c4cc(Cl)ccc34)nc12)C(=O)N1CC[C@H](F)C1")
"2.01 nM"
>>> test_result("C[C@@H](NC(=O)c1c[nH]c2ncc(-c3nn(C)c4cc(Cl)c(F)cc34)nc12)C(=O)N1CC(C#N)C1")
"1.45 nM"
>>> test_result("C[C@@H](NC(=O)c1c[nH]c2ncc(-c3cnc4ccccn34)nc12)C(=O)N1CC(C#N)C1")
"2.17 nM"
